system: NFkB; assay: NFkB-driven luciferase activity in resting conditions (absence of LPS) in THP-1 LUCIA monocytes; format: cell-based; details: 10^-12 M to 10^-6 M, 24 h
experimental_endpoint: NFkB-driven luciferase activity in resting conditions (in words)

CCCCC[C@H](O)c1nc(-c2ccccc2)n(-c2ccccc2)c1/C=C/[C@@H](O)[C@@H](O)CCCC(=O)OC [(1S)-9]    do not elicit
CCCCC[C@@H](O)c1nc(-c2ccccc2)n(-c2ccccc2)c1/C=C/[C@@H](O)[C@@H](O)CCCC(=O)OC [(1R)-9]    do not elicit

* * *

test system: NFkB; assay: LPS-induced NFkB-driven luciferase activity in THP-1 LUCIA monocytes; type: cell-based; conditions: doses 10^-12 M to 10^-6 M; 50 ng/ml LPS, 24 h
experimental_endpoint: effect on LPS-induced NFkB-driven luciferase activity (in words)

Examples with their reported effect on LPS-induced NFkB-driven luciferase activity (in words) follow.
CCCCC[C@@H](O)c1nc2ccccc2nc1/C=C/[C@@H](O)[C@@H](O)CCCC(=O)OC    attenuating
CCC[C@@H](O)c1nc2ccccc2nc1/C=C/[C@@H](O)[C@@H](O)CCCC(=O)OC    attenuates
CCCCCCC[C@@H](O)c1nc2ccccc2nc1/C=C/[C@@H](O)[C@@H](O)CCCC(=O)OC    attenuates
CCCCC[C@@H](O)c1nc(/C=C/[C@@H](O)[C@@H](O)CCCC(=O)OC)cc2ccccc12    attenuates
CCCCC[C@@H](O)c1nc(-c2ccccc2)n(-c2ccccc2)c1/C=C/[C@@H](O)[C@@H](O)CCCC(=O)OC    attenuating
CCCCC[C@@H](O)c1c(/C=C/[C@@H](O)[C@@H](O)CCCC(=O)OC)nc(C)n1C    attenuating

For each of the compounds below, state effect on LPS-induced NFkB-driven luciferase activity (in words).
1. CCCCC[C@H](O)c1nc(-c2ccccc2)n(-c2ccccc2)c1/C=C/[C@@H](O)[C@@H](O)CCCC(=O)OC
2. CCCCC[C@@H](O)c1ncc(/C=C/[C@@H](O)[C@@H]2CCCC(=O)O2)c2ccccc12

Response:
["attenuating", "attenuates"]
